- MEASUREMENT TARGET: CYP2C9 (Homo sapiens)
- Sequence (P11712 whole entry): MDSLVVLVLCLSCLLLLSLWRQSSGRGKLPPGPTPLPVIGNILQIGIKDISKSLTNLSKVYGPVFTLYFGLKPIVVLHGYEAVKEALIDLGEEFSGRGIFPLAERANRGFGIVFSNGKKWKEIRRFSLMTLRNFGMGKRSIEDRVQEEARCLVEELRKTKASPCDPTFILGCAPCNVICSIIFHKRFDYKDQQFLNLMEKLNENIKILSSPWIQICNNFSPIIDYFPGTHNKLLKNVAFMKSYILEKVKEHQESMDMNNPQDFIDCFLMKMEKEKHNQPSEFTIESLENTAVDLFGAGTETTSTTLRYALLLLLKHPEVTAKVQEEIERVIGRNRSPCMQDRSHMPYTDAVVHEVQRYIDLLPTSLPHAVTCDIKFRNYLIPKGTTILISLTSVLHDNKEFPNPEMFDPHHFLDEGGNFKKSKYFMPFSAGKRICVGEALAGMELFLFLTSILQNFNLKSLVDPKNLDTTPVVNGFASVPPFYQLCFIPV
- EXPERIMENTAL PROTOCOL: in vitro
- MEASUREMENT CONDITIONS: human liver microsomes, pH 7.4, probe tolbutamide (6-hydroxylation, TOLHY), 200 µM
RESULT TYPE: inhibition at 60 min, 10 µM
Dear colleague, please send the value followed by its unit.

MOLECULE | inhibition at 60 min, 10 µM
O=C1C[C@@H](c2ccc(O)cc2)Oc2cc(O)cc(O)c21 [Naringenin] | 12%

Would you kindly look at the next entry?
Exercise: Tell me reported inhibition at 60 min, 10 µM for O=C1C[C@@H](c2ccc(O)c(O)c2)Oc2cc(O)cc(O)c21 [Eriodictyol, 3′-hydroxynaringenin] , tested with CYP2C9 (Homo sapiens).
Key: 7.7%

* * *

- EXPERIMENTAL PROTOCOL: NADPH-dependent phase I metabolic stability in human liver microsomes
- Type: in vitro ADME
- MEASUREMENT CONDITIONS: pH 7.4, human liver microsomes
RESULT TYPE: half-life at 100 µM

Exercise: Quick one: half-life at 100 µM of COc1cc(O)c2c(c1)OC(c1ccc(O)cc1)CC2=O (racemic) [SKN, (+/−) 7-O-methylnaringenin] ?
Key: > 1 h

* * *

- EXPERIMENTAL PROTOCOL: NADPH-dependent phase I metabolic stability in mouse liver microsomes
- Type: in vitro ADME
- MEASUREMENT CONDITIONS: pH 7.4, mouse liver microsomes, read-out: CLint, hepatic
RESULT TYPE: CLint scaled at 100 µM (mL/min/kg)
Give the quantity in mL/min/kg, number only.

Exercise: Need CLint scaled at 100 µM, item COc1cc(O)c2c(c1)OC(c1ccc(O)cc1)CC2=O (racemic) [SKN, (+/−) 7-O-methylnaringenin]
Key: 565

* * *

- MEASUREMENT TARGET: UGT1A6 (Homo sapiens, UniProt P19224)
- Construct: The typical incubation mixture contained human liver microsomes (0.5 mg/mL) along with SKN (10 μM); tissue BD Gentest; host or cells: human liver microsomes
- Sequence (P19224 27-532): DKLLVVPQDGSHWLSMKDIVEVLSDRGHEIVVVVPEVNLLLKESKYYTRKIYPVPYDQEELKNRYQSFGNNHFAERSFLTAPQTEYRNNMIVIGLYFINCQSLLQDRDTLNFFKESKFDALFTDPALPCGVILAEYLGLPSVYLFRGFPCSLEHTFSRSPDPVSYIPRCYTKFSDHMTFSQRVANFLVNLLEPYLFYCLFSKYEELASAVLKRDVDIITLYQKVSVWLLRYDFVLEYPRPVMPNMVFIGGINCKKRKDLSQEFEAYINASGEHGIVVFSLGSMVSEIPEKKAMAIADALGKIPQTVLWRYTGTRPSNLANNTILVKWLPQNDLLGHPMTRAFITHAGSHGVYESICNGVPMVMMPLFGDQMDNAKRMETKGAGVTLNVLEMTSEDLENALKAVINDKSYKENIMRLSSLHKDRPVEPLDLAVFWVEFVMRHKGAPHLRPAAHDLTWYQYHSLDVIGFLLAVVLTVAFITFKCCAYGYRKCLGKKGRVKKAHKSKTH
- EXPERIMENTAL PROTOCOL: UGT inhibition in human liver microsomes, 1-naphthol β-D-glucuronidation (NPG)
- Type: in vitro ADME
- MEASUREMENT CONDITIONS: pH 7.4, probe 1-naphthol (200 μM), inhibitor 10 µM, human liver microsomes 0.5 mg/mL, read-out: Inhibition (%)
- Procedure: The formation of a glucuronide conjugate from an isozyme-specific substrate (200 μM, Table 5) was examined to determine UGT activity levels in human liver microsomes. The typical incubation mixture contained human liver microsomes (0.5 mg/mL) along with SKN (10 μM), and MgCl2 (10 mM) in 50 mM Tris-HCl buffer (pH 7.4). The metabolic reaction was initiated by adding UPDGA (2 mM) and stopped by adding an equal volume of ice-cold methanol. […]
RESULT TYPE: inhibition at 10 μM (%)
Output spec: scalar in %, unitless text.

COMPOUND | UNIT ABBREV | inhibition at 10 μM
O=C1C[C@@H](c2ccc(O)cc2)Oc2cc(O)cc(O)c21 [Naringenin] | % | 4.1

Let us examine a further case.
Exercise: // returns reported inhibition at 10 μM for input O=C1C[C@@H](c2ccc(O)c(O)c2)Oc2cc(O)cc(O)c21 [Eriodictyol, 3′-hydroxynaringenin]
Key: 1.9
